The reported measurements were obtained from patent US6306860A.

Molecular target: HBV polymerase (Hepatitis B virus genotype D subtype ayw, UniProt P03156)
Construct: made in house; host or cells: E. coli
Sequence (P03156 whole entry): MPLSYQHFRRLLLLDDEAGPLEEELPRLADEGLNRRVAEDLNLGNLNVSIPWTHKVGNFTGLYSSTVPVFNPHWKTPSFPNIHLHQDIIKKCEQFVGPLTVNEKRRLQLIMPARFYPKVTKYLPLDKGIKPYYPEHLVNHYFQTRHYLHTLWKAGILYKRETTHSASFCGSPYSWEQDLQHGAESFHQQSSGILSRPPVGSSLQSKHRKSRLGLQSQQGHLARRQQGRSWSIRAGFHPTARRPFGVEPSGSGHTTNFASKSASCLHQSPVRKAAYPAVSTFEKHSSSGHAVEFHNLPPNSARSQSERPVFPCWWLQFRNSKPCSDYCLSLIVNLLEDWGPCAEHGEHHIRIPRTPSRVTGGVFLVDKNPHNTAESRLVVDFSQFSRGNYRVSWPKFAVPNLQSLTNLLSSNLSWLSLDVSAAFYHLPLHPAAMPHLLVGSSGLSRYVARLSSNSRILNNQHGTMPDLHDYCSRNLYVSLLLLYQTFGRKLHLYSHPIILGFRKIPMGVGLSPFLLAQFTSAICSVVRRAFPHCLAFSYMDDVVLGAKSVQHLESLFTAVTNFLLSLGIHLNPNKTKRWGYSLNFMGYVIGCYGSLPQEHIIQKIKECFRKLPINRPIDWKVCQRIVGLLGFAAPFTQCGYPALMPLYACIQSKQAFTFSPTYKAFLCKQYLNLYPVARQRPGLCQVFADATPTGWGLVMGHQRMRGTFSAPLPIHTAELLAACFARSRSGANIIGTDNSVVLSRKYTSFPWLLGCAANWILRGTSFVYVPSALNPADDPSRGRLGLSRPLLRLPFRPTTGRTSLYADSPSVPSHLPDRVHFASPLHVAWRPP
Test: Inhibitory activities against HBV polymerase (reverse transcriptase activity) in vitro
Format: biochemical
Conditions: 0.01 μg/ml; read-out: Inhibitory activity of HBV-RT (%)
Values of inhibition at 0.01 µg/mL greater than or equal to 40% map to label 1; values below map to label 0.

CC(C)Nc1cccnc1N1CCN(C(=O)c2ccc(C(=O)NC(CO)CO)cn2)CC1; label 1

// inclusive: inhibition at 0.01 µg/mL at least 40%? input: COCCNC(=O)c1ccc(C(=O)N2CCN(c3ncccc3NC(C)C)CC2)nc1 label 1

State whether the measured inhibition at 0.01 µg/mL reaches 40%, counting equality as reaching it, for CCNc1cccnc1N1CCN(C(=O)c2ccc(C(=O)NCc3ccccn3)cn2)CC1 label 0

hey, is inhibition at 0.01 µg/mL for this one >= 40%? CC(C)Nc1cccnc1N1CCN(C(=O)c2ccc(C(=O)Nc3nncs3)cn2)CC1 label 0

Assess whether reported inhibition at 0.01 µg/mL for CCNC(=O)c1ccc(C(=O)N2CCN(CCO)CC2)nc1 sits at 40% or higher. label 0

Confirm if inhibition at 0.01 µg/mL reported for the compound CCN(CC)C(=O)c1ccc(C(=O)N2CCN(c3ncccc3NC(C)C)CC2)nc1 is 40% or above. label 0

// inclusive: inhibition at 0.01 µg/mL at least 40%? input: Nc1cccnc1N1CCN(C(=O)c2ccc(C(=O)NCCO)cn2)CC1 label 1
